Quick reference for AC50 among some molecules
# experimentalSystem: human CYP2C19 (Homo sapiens)
# Sequence (P33261 whole entry): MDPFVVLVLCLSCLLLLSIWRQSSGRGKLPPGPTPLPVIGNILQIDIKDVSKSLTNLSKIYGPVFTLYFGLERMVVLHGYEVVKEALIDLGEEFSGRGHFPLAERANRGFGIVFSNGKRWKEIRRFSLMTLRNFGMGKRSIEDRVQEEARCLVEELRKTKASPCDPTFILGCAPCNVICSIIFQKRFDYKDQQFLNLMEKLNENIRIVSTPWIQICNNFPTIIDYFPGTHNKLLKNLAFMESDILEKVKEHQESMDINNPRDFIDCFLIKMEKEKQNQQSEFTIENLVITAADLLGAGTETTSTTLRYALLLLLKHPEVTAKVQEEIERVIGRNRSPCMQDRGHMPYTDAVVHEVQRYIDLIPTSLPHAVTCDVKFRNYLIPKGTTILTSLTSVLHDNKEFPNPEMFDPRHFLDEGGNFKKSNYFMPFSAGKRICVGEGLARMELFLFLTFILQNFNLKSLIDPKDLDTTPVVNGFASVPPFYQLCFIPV
# assay: biochemical
# cond: CYP2C19 AC50 (half-maximal activity concentration)
The reply should consist of the numeric value with the unit placed after it.

Consider the reported AC50 for these molecules:
| molecule | experimentalSystem | AC50 |
| --- | --- | --- |
| O=C(C(=O)c1ccccc1)c1ccccc1 [1,2-Diphenylethanedione] | human CYP2C19 (Homo sapiens) | 14.8 µM |
| CCOC(=O)[C@@H](C)Oc1ccc(Oc2nc3ccc(Cl)cc3o2)cc1 [Fenoxaprop-P-ethyl] | human CYP2C19 (Homo sapiens) | 62.1 µM |
| CN1C(CSCC(F)(F)F)Nc2cc(Cl)c(S(N)(=O)=O)cc2S1(=O)=O (centres unmarked) [Polythiazide] | human CYP2C19 (Homo sapiens) | 22 µM |
| C[C@]12CCC(=O)C=C1C=C[C@@H]1[C@@H]2CC[C@@]2(C)[C@H]1CC[C@@]21CCC(=O)O1 [Canrenone] | human CYP2C19 (Homo sapiens) | 1.67 µM |
| CCNc1nc(NC(C)(C)C)nc(SC)n1 [Terbutryn] | human CYP2C19 (Homo sapiens) | 39.6 µM |
| [O-][n+]1ccccc1SSc1cccc[n+]1[O-] [Dipyrithione] | human CYP2C19 (Homo sapiens) | 0.79 µM |
| O=C1C(Cl)C(CCl)CN1c1cccc(C(F)(F)F)c1 (centres unmarked) [Flurochloridone] | human CYP2C19 (Homo sapiens) | 12.3 µM |

From here, focus on the item given below.
Give AC50 for the following molecule: C=C1C[C@H]2[C@@H]3C=C(C)C4=CC(=O)CC[C@]4(C)[C@H]3CC[C@]2(C)[C@@]1(OC(C)=O)C(C)=O [Melengestrol acetate]
20.3 µM
